The reported numbers originate from paper PMC6364417.

Tested on: 501Mel cells (parental)
assay-text: Kinase inhibitor library screening, PrestoBlue cell viability, 1 or 10 μM, 72 h
setup-conditions: 501Mel Parental; 10μΜ; 72 h; in %
Mark each entry YES if its Cell viability in kinase inhibitor library screening, 501Mel Parental, 10μΜ sits below 3, and NO for all others.

Q: Quick check: does CNC(=O)c1cccc(-c2ccc3c(N4CCOC[C@@H]4C)nc(N4CCOC[C@@H]4C)nc3n2)c1 [AZD2014] have Cell viability in kinase inhibitor library screening, 501Mel Parental, 10μΜ under 3?
Result: NO

Q: Continue with Nc1cc(C(F)(F)F)c(-c2cc(N3CCOCC3)nc(N3CCOCC3)n2)cn1 [BKM120 (Buparlisib)]
Result: NO

Q: For CCC(=O)N1CCN(c2ccc(-n3c(=O)ccc4cnc5ccc(-c6cnc7ccccc7c6)cc5c43)cc2C(F)(F)F)CC1 [Torin 1] then?
Result: NO

Q: Quick one: COc1ccc(-c2cc3c(C)nc(N)nc3n([C@H]3CC[C@H](OCCO)CC3)c2=O)cn1 [PF-04691502, reference compound]
Result: YES

Q: Request: Oc1ccc(-c2nc(-c3ccncc3)c(-c3ccc(F)cc3)[nH]2)cc1 [SB 202190]
Result: NO

Q: Request: Cc1ccc([N+](=O)[O-])cc1S(=O)(=O)N(C)/N=C/c1cnc2ccc(Br)cn12 [PIK-75, reference compound]
Result: YES

Q: // same read-out, input: NC(=O)c1ccc(N(C(N)=O)c2c(F)cccc2F)nc1-c1ccc(F)cc1F [VX-702]
Result: NO
